# Test system: MDA-MB-435
# procedureSummary: NCI tumour cell line growth inhibition, 48 h
Activity calls are given as the source filed them. No stated cut-off is given here; in the data, active = GI50 up to about 1.1 µM and inactive = higher.
Classes used: t (active), f (inactive)

compound	assignedCategory
C=C1CC2(OC1=O)c1ccccc1C=Cc1ccccc12	f
Nc1ncnc2c1ncn2C=C=CCO	f
O=[N+]([O-])c1ccc(C2c3c(O)nc(O)nc3Oc3nc(O)nc(O)c32)cc1	f
C=Cc1c(C)c(OC)cc2c1Oc1ccc(OC)c(C)c1CC2	f
O=C1/C(=C/c2ccc(O)c(O)c2)CCC/C1=C\c1ccc(O)c(O)c1	f
COc1cc(C2S/C(=C/c3ccccc3)C(=O)N2c2ccc(Cl)cc2)cc(OC)c1OC (centres undefined)	f
CO[C@H]1C[C@H](O[C@H]2CC[C@]3(C=O)[C@H]4CC[C@]5(C)[C@@H](C6=CC(=O)OC6)CC[C@]5(O)[C@@H]4CC[C@]3(O)C2)O[C@H](C)[C@H]1O[C@@H]1O[C@H](CO[C@@H]2O[C@H](CO)[C@@H](O)[C@H](O)[C@H]2O)[C@@H](O)[C@H](O)[C@H]1O	t
Cc1cc(N(CCC#N)CCC#N)ccc1/C=N/NC(=O)c1cc(Cl)ccc1O	f
CCN(CC)CCn1nc(N)c2nc3ccccc3nc21	f
